method.summary: In vivo pharmacokinetic study in mice
details: male, mouse, plasma; CD-1 mice; PO 10 mg/kg
property: Cmax
Don't forget the unit after the number, please.

Exercise: Recall and state the measured Cmax for [2H]C([2H])([2H])Oc1nc(C(=O)NS(C)(=O)=O)ccc1NCC#Cc1cc2c(N[C@@H]3CCN(C)C[C@@H]3F)cccn2c1CC(F)(F)F [Cpd-2] .
Key: 5.9 µM

* * *

method.summary: Metabolic stability in liver microsomes
Format: in vitro ADME
details: Sprague Dawley, pH 7.4; Rat liver microsomes; read-out: In vitro Clint (μL/min/mg protein)
Listed below: microsomal CLint at 1 μM values for each entry.
Please reply with the bare figure in µL/min/mg and do not write the unit itself.

Answered cases to consult:
molecule: [2H]C([2H])([2H])Oc1nc(C(=O)NS(C)(=O)=O)ccc1NCC#Cc1cc2c(N[C@@H]3CCN(C)C[C@@H]3F)cccn2c1CC(F)(F)F
microsomal CLint at 1 μM [µL/min/mg]: 11.7

molecule: COc1nc(C(=O)NS(C)(=O)=O)ccc1NCC#Cc1cc2c(N[C@@H]3CCN(C)C[C@@H]3F)cccn2c1CC(F)(F)F
microsomal CLint at 1 μM [µL/min/mg]: 35

Exercise: Fill in reported microsomal CLint at 1 μM for this entry: CNC(=O)c1ccc(NCC#Cc2cc3c(N[C@@H]4CCN(C)C[C@@H]4F)cccn3c2CC(F)(F)F)c(OC)c1 [Cpd-C, reference compound]
Key: 61.5

* * *

method.summary: In vivo pharmacokinetic study in rats
details: male, rat, plasma; SD rats; PO 10 mg/kg
property: AUC(0-t) (µM·h)
Report the figure in µM·h without appending any unit label.

Exercise: Check the records and state AUC(0-t) for [2H]C([2H])([2H])Oc1nc(C(=O)NS(C)(=O)=O)ccc1NCC#Cc1cc2c(N[C@@H]3CCN(C)C[C@@H]3F)cccn2c1CC(F)(F)F [Cpd-2]
Key: 58.4

* * *

method.summary: Metabolic stability in liver microsomes
Assay type: in vitro ADME
details: pH 7.4; Human liver microsomes; read-out: In vitro t1/2
half-life at 1 μM values by entry
Please give a number only; it is taken to be in h.

compound: COc1nc(C(=O)NS(C)(=O)=O)ccc1NCC#Cc1cc2c(N[C@@H]3CCN(C)C[C@@H]3F)cccn2c1CC(F)(F)F
property: half-life at 1 μM
obs.value: 2.27

Exercise: For the compound CNC(=O)c1ccc(NCC#Cc2cc3c(N[C@@H]4CCN(C)C[C@@H]4F)cccn3c2CC(F)(F)F)c(OC)c1 [Cpd-C, reference compound] , give its reported half-life at 1 μM.
Key: 0.817

* * *

method.summary: Metabolic stability in liver microsomes
Type: in vitro ADME
details: ICR/CD-1, pH 7.4; Mouse liver microsomes; read-out: In vitro t1/2
Method: The test compound and the positive control compound (dextromethorphan as a control compound) were dissolved respectively in DMSO to prepare a stock solution with a concentration of 10 mM, and the above stock solution was diluted into 200 μM working solution with DMSO. […] The slope (ke) was determined by plotting the natural logarithm of the percentage of compound remaining against time, and the Tin and intrinsic clearance (CLint) were calculated based on the first-order kinetic formula: […]
property: half-life at 1 μM (h)
# number only, unit h dropped from output

Study these solved cases before continuing.
compound: [2H]C([2H])([2H])Oc1nc(C(=O)NS(C)(=O)=O)ccc1NCC#Cc1cc2c(N[C@@H]3CCN(C)C[C@@H]3F)cccn2c1CC(F)(F)F [Cpd-2]
property: half-life at 1 μM
obs.value: 1.83

compound: CNC(=O)c1ccc(NCC#Cc2cc3c(N[C@@H]4CCN(C)C[C@@H]4F)cccn3c2CC(F)(F)F)c(OC)c1 [Cpd-C, reference compound]
property: half-life at 1 μM
obs.value: 0.283

Consider the additional compound presented here.
Exercise: Read the entry COc1nc(C(=O)NS(C)(=O)=O)ccc1NCC#Cc1cc2c(N[C@@H]3CCN(C)C[C@@H]3F)cccn2c1CC(F)(F)F [Cpd-1] and write its reported half-life at 1 μM.
Key: 1.2

* * *

method.summary: In vivo pharmacokinetic study in rats
details: male, rat, plasma; SD rats; IV 1 mg/kg
property: AUC(0-t) (µM·h)
Express the result in µM·h but write the number alone.

Exercise: Assign AUC(0-t) to the following record: [2H]C([2H])([2H])Oc1nc(C(=O)NS(C)(=O)=O)ccc1NCC#Cc1cc2c(N[C@@H]3CCN(C)C[C@@H]3F)cccn2c1CC(F)(F)F [Cpd-2]
Key: 8.4

* * *

Test system: NUGC-3 cells
method.summary: Anti-proliferation effect on NUGC-3 cells (Cell Counting Kit-8)
Assay type: cell-based
details: Homo sapiens, NUGC-3, 120 h; 5 days of treatment
property: pIC50
Just the number, please; pIC50 means minus log10 of the concentration in mol/L.

Exercise: Write down the reported pIC50 (system: NUGC-3 cells) of [2H]C([2H])([2H])Oc1nc(C(=O)NS(C)(=O)=O)ccc1NCC#Cc1cc2c(N[C@H]3CCN(C)C[C@@H]3F)cccn2c1CC(F)(F)F
Key: 6.26

Exercise: Please respond with reported pIC50 (system NUGC-3 cells) for [2H]C([2H])([2H])Oc1nc(C(=O)NS(C)(=O)=O)ccc1NCC#Cc1cc2c(N[C@@H]3CCN(C)C[C@@H]3F)cccn2c1CC(F)(F)F .
Key: 7.24

* * *

Tested on: CYP3A4/5
method.summary: Inhibitory activity on CYP isoenzymes at a single concentration
Format: in vitro ADME
details: pH 7.4, probe testosterone; final compound concentration 10 μM; human liver microsomes; substrate testosterone; NI: no inhibition; read-out: Inhibition rate (%) CYP3A4/5 (Testosterone)
Source text: The buffer was filtered through a 0.45 μm filter.
property: inhibition at 10 min, 10 µM
Kindly format the answer as number then unit.

Exercise: Give reported inhibition at 10 min, 10 µM for COc1nc(C(=O)NS(C)(=O)=O)ccc1NCC#Cc1cc2c(N[C@@H]3CCN(C)C[C@@H]3F)cccn2c1CC(F)(F)F (CYP3A4/5)
Key: 3.7%

* * *

method.summary: Metabolic stability test in hepatocytes
Assay type: in vitro ADME
details: cryopreserved hepatocytes in suspension, Rat hepatocytes, read-out: In vitro t1/2
property: half-life at 1 μM

compound: [2H]C([2H])([2H])Oc1nc(C(=O)NS(C)(=O)=O)ccc1NCC#Cc1cc2c(N[C@@H]3CCN(C)C[C@@H]3F)cccn2c1CC(F)(F)F [Cpd-2]
obs.value: > 511 min
//
compound: COc1nc(C(=O)NS(C)(=O)=O)ccc1NCC#Cc1cc2c(N[C@@H]3CCN(C)C[C@@H]3F)cccn2c1CC(F)(F)F [Cpd-1]
obs.value: > 511 min

Then there is this compound:
Exercise: Write down half-life at 1 μM measured for item CNC(=O)c1ccc(NCC#Cc2cc3c(N[C@@H]4CCN(C)C[C@@H]4F)cccn3c2CC(F)(F)F)c(OC)c1 [Cpd-C, reference compound]
Key: 88 min

* * *

Listed here: items and their measured inhibition at 10 min, 10 µM.
Tested on: CYP3A4/5
method.summary: Inhibitory activity on CYP isoenzymes at a single concentration
Format: in vitro ADME
details: pH 7.4, probe midazolam; final compound concentration 10 μM; human liver microsomes; substrate midazolam; read-out: Inhibition rate (%) CYP3A4/5 (Midazolam)
State the answer as a number, implicitly in %.

query.smiles: COc1nc(C(=O)NS(C)(=O)=O)ccc1NCC#Cc1cc2c(N[C@@H]3CCN(C)C[C@@H]3F)cccn2c1CC(F)(F)F
test.target: CYP3A4/5
inhibition at 10 min, 10 µM (%): 9.8

Switching to the query record.
Exercise: Complete the entry with inhibition at 10 min, 10 µM for [2H]C([2H])([2H])Oc1nc(C(=O)NS(C)(=O)=O)ccc1NCC#Cc1cc2c(N[C@@H]3CCN(C)C[C@@H]3F)cccn2c1CC(F)(F)F
Key: 8.7

* * *

test.target: CYP2D6 (Homo sapiens (Human))
Sequence (P10635 whole entry): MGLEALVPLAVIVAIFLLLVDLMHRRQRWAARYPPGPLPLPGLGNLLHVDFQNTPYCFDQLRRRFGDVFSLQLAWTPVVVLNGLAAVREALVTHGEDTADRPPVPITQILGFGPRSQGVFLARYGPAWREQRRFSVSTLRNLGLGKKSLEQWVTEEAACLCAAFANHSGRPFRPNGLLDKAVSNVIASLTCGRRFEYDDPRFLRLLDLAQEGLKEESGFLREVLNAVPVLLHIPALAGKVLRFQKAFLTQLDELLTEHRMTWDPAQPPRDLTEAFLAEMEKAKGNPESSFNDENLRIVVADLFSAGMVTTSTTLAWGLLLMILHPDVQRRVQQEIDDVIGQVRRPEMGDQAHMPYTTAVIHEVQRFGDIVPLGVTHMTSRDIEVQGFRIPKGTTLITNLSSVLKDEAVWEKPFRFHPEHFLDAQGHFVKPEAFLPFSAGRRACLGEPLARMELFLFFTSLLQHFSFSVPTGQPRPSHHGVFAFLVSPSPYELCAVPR
method.summary: Inhibitory activity on CYP isoenzymes at a single concentration
Assay type: in vitro ADME
details: pH 7.4, probe dextromethorphan; final compound concentration 10 μM; human liver microsomes; substrate dextromethorphan; read-out: Inhibition rate (%) CYP2D6
property: inhibition at 10 min, 10 µM (%)
Answer format: numeric, % implied, no suffix.

query.smiles: COc1nc(C(=O)NS(C)(=O)=O)ccc1NCC#Cc1cc2c(N[C@@H]3CCN(C)C[C@@H]3F)cccn2c1CC(F)(F)F
inhibition at 10 min, 10 µM / %: 1.6

Exercise: Report inhibition at 10 min, 10 µM for [2H]C([2H])([2H])Oc1nc(C(=O)NS(C)(=O)=O)ccc1NCC#Cc1cc2c(N[C@@H]3CCN(C)C[C@@H]3F)cccn2c1CC(F)(F)F
Key: 7.2

* * *

We begin with a simple list: items and their reported half-life at 1 μM.
method.summary: Metabolic stability in liver microsomes
Format: in vitro ADME
details: Sprague Dawley, pH 7.4; Rat liver microsomes; read-out: In vitro t1/2
The reply should be a number in min, with the unit left off.

Take a look at these entries with their results.
molecule: CNC(=O)c1ccc(NCC#Cc2cc3c(N[C@@H]4CCN(C)C[C@@H]4F)cccn3c2CC(F)(F)F)c(OC)c1 [Cpd-C, reference compound]
property: half-life at 1 μM
unit.abbreviation: min
obs.value: 23
--
molecule: [2H]C([2H])([2H])Oc1nc(C(=O)NS(C)(=O)=O)ccc1NCC#Cc1cc2c(N[C@@H]3CCN(C)C[C@@H]3F)cccn2c1CC(F)(F)F
property: half-life at 1 μM
unit.abbreviation: min
obs.value: 119

Kindly consider the entry below.
Exercise: Indicate its recorded half-life at 1 μM; the molecule in question is COc1nc(C(=O)NS(C)(=O)=O)ccc1NCC#Cc1cc2c(N[C@@H]3CCN(C)C[C@@H]3F)cccn2c1CC(F)(F)F
Key: 28

// data source = patent US20250304578A1
